test.summary: Thermodynamic solubility of compound in water measured after 15 mins RP-HPLC analysis
Format: physicochemical
assay.conditions: read-out: Therm_solubility
// reported solubility thermodynamic at 0.25 h per item
The figure you give is taken to be in µg/mL; do not add the unit.

For orientation, consider the following solved cases.
compound	readout.type	meas.value
Nc1c(C(=O)Nc2ccccc2)sc2nc3c(cc12)COCC3	solubility thermodynamic at 0.25 h	1.03
CC(=O)c1cc2c(N)c(C(=O)Nc3ccccn3)sc2nc1C	solubility thermodynamic at 0.25 h	0.45
Cc1nc2sc(C(=O)Nc3cccc4ccccc34)c(N)c2cc1C(C)O (stereo unspecified)	solubility thermodynamic at 0.25 h	2.21
Nc1c(C(=O)Nc2cccc3c2OCCO3)sc2nc3c(cc12)CN(Cc1ccccc1)CC3	solubility thermodynamic at 0.25 h	2.1
Cc1nc2sc(C(=O)Nc3cccc4cnccc34)c(N)c2cc1C(C)O (stereo unspecified)	solubility thermodynamic at 0.25 h	7.55

Field: next compound
# input Please give the measured solubility thermodynamic at 0.25 h for this compound: Nc1c(C(=O)Nc2ccncc2)sc2nc3c(cc12)C(=O)CCC3
# output 1.54

* * *

// reported growth at 1 µM per item
Test system: HCT-116
test.summary: Antiproliferative activity against human HCT-116 cells assessed as cell growth at 1 uM measured after 3 days by [3H]-thymidine incorporation assay relative to control
Assay type: functional
assay.conditions: HCT-116, 72 h, time 3 day, read-out: Activity
The figure you give is taken to be in %; do not add the unit.

For orientation, consider the following solved cases.
compound	endpoint.unit	growth at 1 µM
Nc1c(C(=O)Nc2cccc3cnccc23)sc2nc3c(cc12)CN(Cc1ccccc1)CC3	%	110
CC(=O)c1cc2c(N)c(C(=O)Nc3cncc4ccccc34)sc2nc1C	%	96.2
Cc1nc2sc(C(=O)Nc3ccccn3)c(N)c2cc1C(C)O (stereo unspecified)	%	96.5
COc1cccc(NC(=O)c2sc3nc4c(cc3c2N)CN(Cc2ccccc2)CC4)c1C	%	101
CC(=O)c1cc2c(N)c(C(=O)Nc3cccc(C)c3C)sc2nc1C	%	2.1
Cc1cccc(NC(=O)c2sc3nc4c(cc3c2N)CN(Cc2ccccc2)CC4)c1C	%	1.5
Nc1c(C(=O)Nc2ccccn2)sc2nc3c(cc12)C(=O)CCC3	%	10.2
Cc1c(Cl)cccc1NC(=O)c1sc2nc3c(cc2c1N)CN(C)CC3	%	101
Cc1c(Cl)cccc1NC(=O)c1sc2nc3c(cc2c1N)CN(Cc1ccccc1)CC3	%	2.3
Cc1nc2sc(C(=O)Nc3cccc4cnccc34)c(N)c2cc1C(C)O (stereo unspecified)	%	110

# input Please give the measured growth at 1 µM for this compound: Nc1c(C(=O)Nc2ccccc2Cl)sc2nc3c(cc12)CN(Cc1ccccc1)CC3
# output 99.4

# input Please give the measured growth at 1 µM for this compound: CC(=O)c1cc2c(N)c(C(=O)Nc3cccc4cnccc34)sc2nc1C
# output 111

# input Please give the measured growth at 1 µM for this compound: Cc1nc2sc(C(=O)Nc3ccccc3)c(N)c2cc1C(C)O (stereo unspecified)
# output 95.3

* * *

test.summary: Thermodynamic solubility of compound in water measured after 15 mins RP-HPLC analysis
Format: physicochemical
assay.conditions: read-out: Therm_solubility
readout.type: solubility thermodynamic at 0.25 h (µg/mL)
The figure you give is taken to be in µg/mL; do not add the unit.

For orientation, consider the following solved cases.
compound	meas.value
COc1cccc(NC(=O)c2sc3nc(C)c(C(C)=O)cc3c2N)c1	1.1
CC(=O)c1cc2c(N)c(C(=O)Nc3cccc4c3OCCO4)sc2nc1C	0.26

# input Please give the measured solubility thermodynamic at 0.25 h for this compound: Nc1c(C(=O)Nc2ccnc3ccccc23)sc2nc3c(cc12)C(=O)CCC3
# output 0.64

# input Please give the measured solubility thermodynamic at 0.25 h for this compound: CC(=O)c1cc2c(N)c(C(=O)Nc3ccc4c(c3)OCCO4)sc2nc1C
# output 0.19

* * *

Test system: MDA-MB-231
test.summary: Antiproliferative activity against human MDA-MB-231 cells assessed as cell growth at 1 uM measured after 3 days by [3H]-thymidine incorporation assay relative to control
Format: functional
assay.conditions: MDA-MB-231, 72 h, time 3 day, read-out: Activity
readout.type: growth at 1 µM

For orientation, consider the following solved cases.
molecule	tested.on	growth at 1 µM
Cc1nc2sc(C(=O)Nc3ccncc3)c(N)c2cc1C(C)O (stereo unspecified)	MDA-MB-231	113%
CC(=O)c1cc2c(N)c(C(=O)Nc3ccccc3)sc2nc1C	MDA-MB-231	120%
Cc1nc2sc(C(=O)Nc3ccnc4ccccc34)c(N)c2cc1C(C)O (stereo unspecified)	MDA-MB-231	107%
CC(=O)c1cc2c(N)c(C(=O)Nc3cccc(Br)c3C)sc2nc1C	MDA-MB-231	11%

# input Please give the measured growth at 1 µM for this molecule: Nc1c(C(=O)Nc2cccc3c2OCCO3)sc2nc3c(cc12)C(=O)CCC3
# output 17.8%

# input Please give the measured growth at 1 µM for this molecule: CC(=O)c1cc2c(N)c(C(=O)Nc3ccncc3)sc2nc1C
# output 97.2%

# input Please give the measured growth at 1 µM for this molecule: Cc1c(Br)cccc1NC(=O)c1sc2nc3c(cc2c1N)CN(Cc1ccccc1)CC3
# output 3.5%

* * *

test.summary: Thermodynamic solubility of compound in water measured after 15 mins RP-HPLC analysis
Assay type: physicochemical
assay.conditions: read-out: Therm_solubility
Binary classification by solubility thermodynamic at 0.25 h, with 2 µg/mL as an inclusive lower bound for T; all other cases are F.

Reference set (5 entries):
molecule	class.label
CC(=O)c1cc2c(N)c(C(=O)Nc3ccccc3)sc2nc1C	T
Cc1nc2sc(C(=O)Nc3cccc(Cl)c3C)c(N)c2cc1C(C)O (stereo not given)	T
COc1ccc(NC(=O)c2sc3nc(C)c(C(C)=O)cc3c2N)cc1	F
CC(=O)c1cc2c(N)c(C(=O)Nc3cccc(Cl)c3)sc2nc1C	F
Nc1c(C(=O)Nc2cccc3ccncc23)sc2nc3c(cc12)C(=O)CCC3	F

# input Does the molecule Cc1ccccc1NC(=O)c1sc2nc3c(cc2c1N)CN(C)CC3 have recorded solubility thermodynamic at 0.25 h that is 2 µg/mL or more?
# output T

# input Does the molecule CC(=O)c1cc2c(N)c(C(=O)Nc3cccc(C)c3C)sc2nc1C have recorded solubility thermodynamic at 0.25 h that is 2 µg/mL or more?
# output F

# input Does the molecule Cc1c(Cl)cccc1NC(=O)c1sc2nc3c(cc2c1N)CN(C)CC3 have recorded solubility thermodynamic at 0.25 h that is 2 µg/mL or more?
# output F

# input Does the molecule CC(=O)c1cc2c(N)c(C(=O)Nc3cccc4ccncc34)sc2nc1C have recorded solubility thermodynamic at 0.25 h that is 2 µg/mL or more?
# output F

* * *

// reported growth at 1 µM per item
Test system: HCT-116
test.summary: Antiproliferative activity against human HCT-116 cells assessed as cell growth at 1 uM measured after 3 days by [3H]-thymidine incorporation assay relative to control
Format: functional
assay.conditions: HCT-116, 72 h, time 3 day, read-out: Activity
The figure you give is taken to be in %; do not add the unit.

For orientation, consider the following solved cases.
molecule	growth at 1 µM / %
Nc1c(C(=O)Nc2cccc3ccncc23)sc2nc3c(cc12)CN(Cc1ccccc1)CC3	103
Cc1nc2sc(C(=O)Nc3ccc4c(c3)OCCO4)c(N)c2cc1C(C)O (stereo not drawn)	94.9
Cc1nc2sc(C(=O)Nc3cccc4ccccc34)c(N)c2cc1C(C)O (stereo not drawn)	1.7

# input Please give the measured growth at 1 µM for this molecule: Nc1c(C(=O)Nc2cccc3c2OCCO3)sc2nc3c(cc12)CN(Cc1ccccc1)CC3
# output 88.2

# input Please give the measured growth at 1 µM for this molecule: CN1CCc2nc3sc(C(=O)Nc4ccccc4)c(N)c3cc2C1
# output 100

# input Please give the measured growth at 1 µM for this molecule: COc1ccc(NC(=O)c2sc3nc4c(cc3c2N)CN(Cc2ccccc2)CC4)cc1
# output 87.4

# input Please give the measured growth at 1 µM for this molecule: Nc1c(C(=O)Nc2cccc3cccnc23)sc2nc3c(cc12)CN(Cc1ccccc1)CC3
# output 98.2

# input Please give the measured growth at 1 µM for this molecule: Nc1c(C(=O)Nc2cccc3ccccc23)sc2nc3c(cc12)COCC3
# output 100

* * *

test.summary: Thermodynamic solubility of compound in water measured after 15 mins RP-HPLC analysis
Format: physicochemical
assay.conditions: read-out: Therm_solubility
// reported log10 solubility thermodynamic at 0.25 h per item
Use the decimal logarithm of solubility thermodynamic at 0.25 h (µg/mL).

molecule	log10 solubility thermodynamic at 0.25 h
CN1CCc2nc3sc(C(=O)Nc4cccc5ccccc45)c(N)c3cc2C1	0.34
Nc1c(C(=O)Nc2cccc3cnccc23)sc2nc3c(cc12)CN(Cc1ccccc1)CC3	0.05
COc1ccc(NC(=O)c2sc3nc4c(cc3c2N)COCC4)cc1	0.50
Nc1c(C(=O)Nc2cccc3cnccc23)sc2nc3c(cc12)C(=O)CCC3	0.22
Cc1cccc(NC(=O)c2sc3nc4c(cc3c2N)CN(Cc2ccccc2)CC4)c1C	0.24

# input Please give the measured log10 solubility thermodynamic at 0.25 h for this molecule: CC(=O)c1cc2c(N)c(C(=O)Nc3cccc4ccccc34)sc2nc1C
# output 0.03

# input Please give the measured log10 solubility thermodynamic at 0.25 h for this molecule: COc1ccc(NC(=O)c2sc3nc4c(cc3c2N)CN(Cc2ccccc2)CC4)cc1
# output -0.71

# input Please give the measured log10 solubility thermodynamic at 0.25 h for this molecule: COc1ccc(NC(=O)c2sc3nc(C)c(C(C)O)cc3c2N)cc1 (configuration not stated)
# output 0.25

# input Please give the measured log10 solubility thermodynamic at 0.25 h for this molecule: CC(=O)c1cc2c(N)c(C(=O)Nc3ccnc4ccccc34)sc2nc1C
# output -0.59

# input Please give the measured log10 solubility thermodynamic at 0.25 h for this molecule: Nc1c(C(=O)Nc2cccc3cccnc23)sc2nc3c(cc12)CN(Cc1ccccc1)CC3
# output 0.07

# input Please give the measured log10 solubility thermodynamic at 0.25 h for this molecule: Cc1nc2sc(C(=O)Nc3cccc4ncccc34)c(N)c2cc1C(C)O (configuration not stated)
# output -0.05

# input Please give the measured log10 solubility thermodynamic at 0.25 h for this molecule: COc1cccc(NC(=O)c2sc3nc4c(cc3c2N)CN(Cc2ccccc2)CC4)c1
# output -0.52
